Biological target: Cif (Pseudomonas aeruginosa (strain UCBPP-PA14))
Test: Secondary screen (sextuplicate) with fluorogenic substrate CMNGC
Assay type: biochemical
Conditions: read-out: % Inhibition, plate 2
Structures can show the parent of a compound that is named as a salt.

{"compound": "CC1=NN(c2ccccc2)C(=O)C1", "output-unit": "%", "inhibition at 10 µM": 13}
{"compound": "NC[C@H]1O[C@H](O[C@H]2[C@H](O)[C@@H](O[C@H]3O[C@H](CO)[C@@H](O)[C@H](N)[C@H]3O)[C@H](N)C[C@@H]2N)[C@H](N)C[C@@H]1O", "output-unit": "%", "inhibition at 10 µM": -7}
{"compound": "Nc1nc2c(ncn2CCC(CO)CO)c(=O)[nH]1", "output-unit": "%", "inhibition at 10 µM": 1}
{"compound": "C[C@]12CCC(=O)C=C1C=C[C@@H]1[C@@H]2CC[C@@]2(C)[C@H]1CC[C@@]21CCC(=O)O1", "output-unit": "%", "inhibition at 10 µM": 27}
{"compound": "CN(C)CCCN1c2ccccc2Sc2ccc(C(F)(F)F)cc21 [Triflupromazine hydrochloride]", "output-unit": "%", "inhibition at 10 µM": 10}
{"compound": "CN(C)CCCN1c2ccccc2CCc2ccc(Cl)cc21 [Clomipramine hydrochloride]", "output-unit": "%", "inhibition at 10 µM": 3}
{"compound": "O=C1CC2(CCCC2)CC(=O)N1CCCCN1CCN(c2ncccn2)CC1 [Buspirone hydrochloride]", "output-unit": "%", "inhibition at 10 µM": -3}
{"compound": "Cc1nccnc1N1CCCCC1 [Modaline sulfate]", "output-unit": "%", "inhibition at 10 µM": 7}

---

Target: Cif (Pseudomonas aeruginosa (strain UCBPP-PA14))
Experiment: Secondary screen (sextuplicate) with fluorogenic substrate CMNGC
Format: biochemical
Settings: read-out: % Inhibition, plate 6
Counter-ions that a name gives are not always drawn.

{"compound": "CN(C)CCOc1ccc(/C(=C(/CCCl)c2ccccc2)c2ccccc2)cc1 [Toremiphene citrate]", "output-unit": "%", "inhibition at 10 µM": 11}
{"compound": "CCCCCCCCCCCCCCCCOP(=O)([O-])OCC[N+](C)(C)C [Miltefosine]", "output-unit": "%", "inhibition at 10 µM": 11}
{"compound": "C=C(NC(=O)C(=C)NC(=O)c1csc(C2=N[C@@H]3c4csc(n4)[C@H]4NC(=O)c5csc(n5)[C@H]([C@](C)(O)[C@@H](C)O)NC(=O)[C@H]5CSC(=N5)/C(=C/C)NC(=O)[C@H]([C@@H](C)O)NC(=O)c5csc(n5)[C@]3(CC2)NC(=O)[C@H](C)NC(=O)C(=C)NC(=O)[C@H](C)NC(=O)[C@H]([C@@H](C)CC)N[C@@H]2C=Cc3c([C@H](C)O)cc(nc3[C@H]2O)C(=O)O[C@@H]4C)n1)C(N)=O [Thiostrepton]", "output-unit": "%", "inhibition at 10 µM": 42}
{"compound": "CC(=O)[C@@]1(O)CC[C@H]2[C@@H]3C[C@H](C)C4=CC(=O)C=C[C@]4(C)[C@@]3(F)[C@@H](O)C[C@@]21C [Fluorometholone]", "output-unit": "%", "inhibition at 10 µM": 16}
{"compound": "NC[C@H]1O[C@H](O[C@H]2[C@H](O)[C@@H](O[C@H]3O[C@H](CO)[C@@H](O)[C@H](N)[C@H]3O)[C@H](N)C[C@@H]2N)[C@H](N)C[C@@H]1O [Tobramycin]", "output-unit": "%", "inhibition at 10 µM": -21}
{"compound": "S=c1nc[nH]c2nc[nH]c12 [Mercaptopurine]", "output-unit": "%", "inhibition at 10 µM": 11}
{"compound": "C=CC1=C(C)c2cc3[nH]c(cc4nc(cc5[nH]c(cc1n2)c(C)c5CCC(=O)O)C(CCC(=O)O)=C4C)c(C)c3C=C [Protoporphyrin ix]", "output-unit": "%", "inhibition at 10 µM": 29}
{"compound": "Nc1nc(Cl)nc2c1ncn2[C@@H]1O[C@H](CO)[C@@H](O)[C@@H]1F [Clofarabine]", "output-unit": "%", "inhibition at 10 µM": 16}
{"compound": "COC(=O)/C=C/C(=O)OC [Dimethyl fumarate]", "output-unit": "%", "inhibition at 10 µM": 6}
{"compound": "C[N+](C)(C)CC(=O)O [Betaine hydrochloride]", "output-unit": "%", "inhibition at 10 µM": 18}
{"compound": "NCC(O)c1ccc(O)cc1 (stereo not shown) [Octopamine hydrochloride]", "output-unit": "%", "inhibition at 10 µM": 17}
{"compound": "CCCCCCCCCCCCCCOS(=O)(=O)O [Sodium tetradecyl sulfate]", "output-unit": "%", "inhibition at 10 µM": 5}
{"compound": "CN(C)CCCN1c2ccccc2CCc2ccc(Cl)cc21 [Clomipramine hydrochloride]", "output-unit": "%", "inhibition at 10 µM": 7}
{"compound": "C[C@]12CCC(=O)C=C1C=C[C@@H]1[C@@H]2CC[C@@]2(C)[C@H]1CC[C@@]21CCC(=O)O1 [Canrenone]", "output-unit": "%", "inhibition at 10 µM": 27}
{"compound": "Nc1ccc(S(=O)(=O)Nc2ncccn2)cc1 [Sulfadiazine]", "output-unit": "%", "inhibition at 10 µM": 15}
{"compound": "Nc1nc2c(ncn2CCC(CO)CO)c(=O)[nH]1 [Penciclovir]", "output-unit": "%", "inhibition at 10 µM": -3}

---

Molecular target: Cif (Pseudomonas aeruginosa (strain UCBPP-PA14), UniProt A0A0H2ZD27)
Sequence (A0A0H2ZD27 25-319 limits assumed): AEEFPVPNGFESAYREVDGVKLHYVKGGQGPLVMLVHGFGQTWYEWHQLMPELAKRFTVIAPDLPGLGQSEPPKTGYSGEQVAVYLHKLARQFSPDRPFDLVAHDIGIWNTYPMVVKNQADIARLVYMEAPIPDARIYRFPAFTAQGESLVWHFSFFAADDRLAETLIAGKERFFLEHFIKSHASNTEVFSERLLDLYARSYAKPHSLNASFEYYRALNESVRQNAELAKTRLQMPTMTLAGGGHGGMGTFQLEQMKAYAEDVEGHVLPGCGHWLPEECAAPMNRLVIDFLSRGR
Assay: Secondary screen (sextuplicate) with fluorogenic substrate CMNGC;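 note: purified enzyme assay in 96-well plates, 200 µL volume, fluorescence recorded each minute across a 60 min reaction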
Type: biochemical
Details: read-out: % Inhibition, plate 3
Where a name gives a salt, the structure may show the parent alone.
measured-property: inhibition at 10 µM (%)

{"molecule": "CCCCCCCCCCCCCCCCOP(=O)([O-])OCC[N+](C)(C)C [Miltefosine]", "measured-property": "inhibition at 10 µM", "endpoint-result": 11}
{"molecule": "NC(CO)C(=O)NNCc1ccc(O)c(O)c1O (stereo not drawn) [Benserazide hydrochloride]", "measured-property": "inhibition at 10 µM", "endpoint-result": 80}
{"molecule": "Nc1ccc(S(=O)(=O)Nc2ncccn2)cc1 [Sulfadiazine]", "measured-property": "inhibition at 10 µM", "endpoint-result": 24}
{"molecule": "CCOC(=O)[C@H](CCc1ccccc1)N[C@@H](C)C(=O)N1CCC[C@H]1C(=O)O [Enalapril maleate]", "measured-property": "inhibition at 10 µM", "endpoint-result": 1}
{"molecule": "CC(C(=O)O)c1cccc(C(=O)c2ccccc2)c1 (stereo not drawn) [Ketoprofen]", "measured-property": "inhibition at 10 µM", "endpoint-result": 9}
{"molecule": "CN(C)CCCN1c2ccccc2Sc2ccc(C(F)(F)F)cc21 [Triflupromazine hydrochloride]", "measured-property": "inhibition at 10 µM", "endpoint-result": -2}
{"molecule": "Nc1nc2c(ncn2CCC(CO)CO)c(=O)[nH]1 [Penciclovir]", "measured-property": "inhibition at 10 µM", "endpoint-result": 2}
{"molecule": "N#C[C@@H]1C[C@@H]2C[C@@H]2N1C(=O)[C@@H](N)C12CC3CC(CC(O)(C3)C1)C2 [Saxagliptin]", "measured-property": "inhibition at 10 µM", "endpoint-result": 6}
{"molecule": "C=CC1=C(C)c2cc3[nH]c(cc4nc(cc5[nH]c(cc1n2)c(C)c5CCC(=O)O)C(CCC(=O)O)=C4C)c(C)c3C=C [Protoporphyrin ix]", "measured-property": "inhibition at 10 µM", "endpoint-result": 21}

---

Target: Cif (Pseudomonas aeruginosa (strain UCBPP-PA14), UniProt A0A0H2ZD27)
Test: Fluorescent-based Cif inhibitory assay (CMNGC)
Settings: Table 17 (R6-R9 series); CMNGC; average of triplicates
pIC50: −log10 of the molar value.

{"compound": "CCOC(=O)CC(=O)Nc1cc(Cl)c(Oc2ccc(O)cc2)c(Cl)c1 [Compound 1k]", "qualifier-symbol": "<", "pIC50": 4.30}
{"compound": "CCOC(=O)CC(=O)Nc1cc(Cl)c(Oc2ccc(O)c(I)c2)c(Cl)c1 [Compound 1m]", "qualifier-symbol": "=", "pIC50": 5.42}
{"compound": "CCOC(=O)CC(=O)Nc1cc(Cl)c(Oc2ccc(O)c(Br)c2)c(Cl)c1 [Compound 1l]", "qualifier-symbol": "=", "pIC50": 5.31}
{"compound": "C#Cc1cc(Oc2c(Cl)cc(NC(=O)CC(=O)OCC)cc2Cl)ccc1O [Compound 1p]", "qualifier-symbol": "=", "pIC50": 5.54}
{"compound": "CCOC(=O)CC(=O)Nc1cc(Cl)c(Oc2ccc(O)c(C(C)C)c2)c(Cl)c1 [Compound 1i]", "qualifier-symbol": "=", "pIC50": 5.42}
{"compound": "CCOC(=O)CC(=O)Nc1ccc(Oc2ccc(O)c(C(C)C)c2)c(Cl)c1 [Compound 1j]", "qualifier-symbol": "=", "pIC50": 4.94}
{"compound": "CCOC(=O)CC(=O)Nc1cc(Cl)c(Oc2ccc(O)cc2Br)c(Cl)c1 [Compound 1q]", "qualifier-symbol": "=", "pIC50": 4.53}
{"compound": "CCOC(=O)CC(=O)Nc1cc(Cl)c(Oc2ccc(O)c(C(F)(F)F)c2)c(Cl)c1 [Compound 1n]", "qualifier-symbol": "=", "pIC50": 5.52}
{"compound": "CCOC(=O)CC(=O)Nc1cc(Br)c(Oc2ccc(OC)c(C(C)C)c2)c(Br)c1 [Compound 1h]", "qualifier-symbol": "<", "pIC50": 4.30}
{"compound": "CCOC(=O)CC(=O)Nc1cc(Br)c(Oc2cccc(C(C)C)c2)c(Br)c1 [Compound 1g]", "qualifier-symbol": "<", "pIC50": 4.30}
